This collection of values is drawn from the supplement of paper PMC9170038.

// reported apparent KD of MS2 coat protein for each item listed
- System: MS2 coat protein
- test: apparent KD of MS2 coat protein; designed switch direction (-1 OFF switch, 1 ON switch): 1; higher = weaker reporter binding
- experimental.setup: input ligand: none
Remember to quote the unit after the number.

>>> reading("GCUACCAUAGAAGCCAACAUGAGGAUCACCCAUGUAUGUUGGUAGGAUAUCGAUUGCAAAGCGAUCGAGAAGGGCUAAGGUAGC [Mat - Same State NG 3 - JL Mod - D83] (Eterna round: R96, puzzle: Same State NG 3)")
"139 nM"
>>> reading("GAGUGGUAGAGAGGAUAUGCAUUGUUAUUCACUGUAGAAGGUUUUAACAUGAGGAUCACCCAUGUAGGACUAUUCCUGUGUUUU [Parity 62 - Jieux - Same State NG 1] (Eterna round: R96, puzzle: Same State NG 1)")
"18.4 nM"
>>> reading("GCUAGAAUUAAAGCCAACAUGAGGAUCACCCAUGUAUGUUGGCAGGAUAUCGUUUGCUUUGCAAACGAGAAGGGCCAUACUAGC [JL SSNG3 1.08] (Eterna round: R96, puzzle: Same State NG 3)")
"134 nM"

Please provide the recorded apparent KD of MS2 coat protein for AAAAUAUAAAGAGAGGAUAUCCAAAGAACCACAUGAGGAUCACCCAUGUAAAGAAAGAAUAAGUGGGAGAAGGCUCAAAUAAUAA [Designing denovo 24] (Eterna round: R96, puzzle: Same State 2) , tested on MS2 coat protein.
114 nM
